- MEASUREMENT SETUP: initial O2 40 ppb; 227-239° F.
- Procedure: A second more extensive group of potential oxygen scavengers were compared, again using a small laboratory boiler and oxygen saturated feed water containing sodium hydroxide. […] The hydrazine salts among this group are no less toxic than hydrazine and therefore were eliminated from further study. […] In addition, the carbohydrazide was preferred because it is a solid at room temperature and could therefore be used in dry formulations. INITIAL SCREENING AT 227-239° F.
MEASURED ENDPOINT: % O2 Removal (%)
Lab book: enter the figure in %, no units written.

Quick check: % O2 Removal of NNC=O [Formohydrazide] ?
0

What % O2 Removal value was documented for this compound, O=CNNC=O [Diformohydrazide] ?
0

Endpoint output: % O2 Removal of O=C(O)NNC(=O)O [Disodiumdihydrazodicarboxylate] . Value?
75

Name the reported % O2 Removal value associated with the compound NNC(=O)NN [Carbohydrazide, N, N' diaminourea]
87.5

Given NN.O=S(=O)(O)O [Hydrazine sulfate, Hydrazinium sulfate, reference compound] , state its recorded % O2 Removal.
87.5

Look at this compound and give its reported % O2 Removal. COC(=O)NNC(=O)OC [Dimethyldihydrazodicarboxylate]
50

Which % O2 Removal value belongs to NN [Hydrazine, hydrazine, reference compound] ?
87.5
